# Experiment Summary: high-throughput enzyme assay with crude bacterial extract
# Assay type: biochemical
# Condition Context: relative to wild-type RdpA
Recorded measurements of Replicate 1 quizalofop-P activity, one per entry
API doc: respond with a numeric literal and nothing else, no unit.

Molecule	Replicate 1 quizalofop-P activity
MON-HT53: engineered oxygenase protein, amino acid sequence SEQ ID NO:7 (protein) MHAALSPLSQRFERIAVQPLTGVLGAEITGVDLREPLSDSTWNEILDAFHTYQVIYFPGQAITNEQHIAFSRRFGPVDPVPLLKSIEGYPEVQMIRREANESGRVIGDDWHSDSTFLDAPPAAVVMRAIDVPEHGGDTGFLSMYTAYDALSDGLKKLISGLNVVHSATRVFGSLYQAQNRRFSNTSVKVMDVDAGDRETVHPLVVTHPGSGRKGLYVNQVYCQRIEGMSEKESEPLLSFLFAHATKPEFTCRVRWKKDQVLVWDNLCTMHYAINDYHGQTRILHRTTVGGVRPAR	105.34

Consider the record given below.
For record MON-HT55: engineered oxygenase protein, amino acid sequence SEQ ID NO:11 (protein) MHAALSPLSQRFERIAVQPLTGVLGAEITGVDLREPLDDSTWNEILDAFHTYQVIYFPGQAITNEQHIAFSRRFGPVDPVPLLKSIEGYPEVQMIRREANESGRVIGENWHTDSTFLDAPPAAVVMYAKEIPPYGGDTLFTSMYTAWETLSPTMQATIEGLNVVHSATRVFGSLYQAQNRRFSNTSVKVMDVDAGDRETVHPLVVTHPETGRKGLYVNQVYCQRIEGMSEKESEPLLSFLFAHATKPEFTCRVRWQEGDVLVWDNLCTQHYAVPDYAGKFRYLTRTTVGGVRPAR the listed Replicate 1 quizalofop-P activity is 118.48
